The values you see were collected from EPA's ToxValDB 9.5.

# Test system: Oryctolagus sp.
# ASSAY_SETUP: acute; dermal; occlusive; New Zealand
TEST_READOUT: LD50

Short answer for `O=c1[nH]c(=O)[nH]c(=O)[nH]1` : LD50 was > 5000 mg/kg

Value of measured LD50 for the entry C=C(C#N)C(=O)OCC [Ethyl cyanoacrylate] : > 2000 mg/kg

Short answer for CCCCCCCCCCc1cccc(Oc2ccccc2S(=O)(=O)[O-])c1S(=O)(=O)[O-].[Na+].[Na+] [Disodium n-decyldiphenyl ether disulfonate] : LD50 was > 2000 mg/kg

GET /value?item= `CCCCCCCCCCCCCCCCCCN(C)CCCCCCCCCCCCCCCCCC` &field=LD50 returns > 2000 mg/kg

// sample C=CC(C)C#N (stereo not given) , its LD50 was 482 mg/kg
